biological target: PRMT5 (Homo sapiens, UniProt O14744); construct: purchased Viva (custom protein); test: PRMT5 biochemical IC50 assay with SAM as cofactor; settings: PRMT5, SAM as cofactor; read-out: SAM IC50
Sequence (O14744 whole entry): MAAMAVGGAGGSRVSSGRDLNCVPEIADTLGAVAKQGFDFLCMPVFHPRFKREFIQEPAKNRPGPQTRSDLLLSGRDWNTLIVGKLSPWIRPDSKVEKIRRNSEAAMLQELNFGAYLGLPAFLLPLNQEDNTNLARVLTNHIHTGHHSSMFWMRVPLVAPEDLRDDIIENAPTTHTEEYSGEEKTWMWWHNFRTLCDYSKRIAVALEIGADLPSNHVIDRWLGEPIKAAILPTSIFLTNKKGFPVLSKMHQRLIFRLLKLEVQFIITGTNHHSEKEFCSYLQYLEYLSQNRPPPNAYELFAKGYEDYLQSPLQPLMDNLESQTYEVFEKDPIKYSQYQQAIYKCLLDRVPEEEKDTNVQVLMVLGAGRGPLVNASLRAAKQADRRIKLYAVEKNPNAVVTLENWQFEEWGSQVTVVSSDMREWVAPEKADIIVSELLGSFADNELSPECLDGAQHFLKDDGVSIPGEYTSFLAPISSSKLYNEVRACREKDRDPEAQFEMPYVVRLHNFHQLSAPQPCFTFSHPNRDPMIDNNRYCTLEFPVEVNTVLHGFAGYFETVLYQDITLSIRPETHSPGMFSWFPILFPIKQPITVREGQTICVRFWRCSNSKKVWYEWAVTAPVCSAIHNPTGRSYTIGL
Sequence (Q9BQA1 whole entry partner): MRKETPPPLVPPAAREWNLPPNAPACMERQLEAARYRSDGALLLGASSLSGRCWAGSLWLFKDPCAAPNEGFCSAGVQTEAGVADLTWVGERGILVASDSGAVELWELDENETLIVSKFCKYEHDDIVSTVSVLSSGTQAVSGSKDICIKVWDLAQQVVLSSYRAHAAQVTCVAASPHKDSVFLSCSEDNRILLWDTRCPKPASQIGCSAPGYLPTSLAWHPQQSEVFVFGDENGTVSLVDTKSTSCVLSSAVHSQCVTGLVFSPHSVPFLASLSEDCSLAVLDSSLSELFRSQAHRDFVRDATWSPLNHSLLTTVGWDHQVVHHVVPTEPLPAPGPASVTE
Entries annotated with measured IC50

Use these answered entries as a reference point.
COc1ncc(NC(=O)C(=O)N2CCCCC2C2CCCCC2)cc1C(N)=O (single isomer, unassigned) [Compound 347] ... 50 to 500 nM
Cc1ncc(NC(=O)C(=O)N2C[C@@H](C)CC[C@@H]2c2ccc3sc(C4CCN(C)CC4)nc3c2)cc1C(F)F ... < 50 nM

Now look at this one.
Query block: Give its IC50 value. Item: Cc1cc(NC(=O)C(=O)N2C[C@H](C)CC[C@H]2c2ccc(N3CCN(C)CC3)nc2)cnc1N (single isomer, unassigned)
Result block: 50 to 500 nM

----------
target: PRMT5 (Homo sapiens); construct: purchased Viva (custom protein); test: PRMT5 biochemical IC50 assay with SAM as cofactor; details: PRMT5, SAM as cofactor; read-out: SAM IC50
Entries annotated with measured IC50

Use these answered entries as a reference point.
Cc1cc(NC(=O)C(=O)N2C[C@@H](C)CC[C@@H]2c2ccc3sc(C4CCN(CCF)CC4)nc3c2)cnc1N ... < 50 nM
COc1ncc(NC(=O)C(=O)N2C[C@H](C)CC[C@H]2c2cscn2)cc1C(N)=O (single isomer, unassigned) ... 50 to 500 nM
CCc1cc(NC(=O)C(=O)N2C[C@H](C)C(F)(F)C[C@H]2c2ccc3[nH]ncc3c2)cnc1N (single isomer, unassigned) ... 50 to 500 nM
Cc1cc(NC(=O)C(=O)N2C[C@H](C)CC[C@H]2C2CCCCC2)cnc1N (single isomer, unassigned) ... 50 to 500 nM
COc1cc([C@@H]2CC[C@@H](C)CN2C(=O)C(=O)Nc2cncc(C(N)=O)c2)ccn1 (racemic) [Compound 225] ... 50 to 500 nM

Query block: Quick check: IC50 on PRMT5 (Homo sapiens), item C[C@H]1CCC(c2ccc3sc(C4CCOCC4)nc3c2)N(C(=O)C(=O)Nc2cnc(N)c(C3CC3)c2)C1 (single isomer, unassigned) ?
Result block: 50 to 500 nM

Query block: // next record Cc1cc(NC(=O)C(=O)N2CCCCC2c2cccc3ocnc23)cnc1N (stereo not shown)
Result block: > 500 nM

----------
target: PRMT5 (Homo sapiens, UniProt O14744); construct: purchased Viva (custom protein); assay: PRMT5 biochemical IC50 assay with MTA as cofactor; conditions: PRMT5, MTA as cofactor; read-out: MTA IC50
readout-label: IC50

Cc1cc(NC(=O)C(=O)N2C[C@@H](C)CC[C@@H]2c2ccc3sc(C4CCN(C5COC5)CC4)nc3c2)cnc1N [Compound 1268] ... < 50 nM
C[C@@H]1CC[C@@H](c2ccc3[nH]ncc3n2)N(C(=O)C(=O)Nc2cncc(C(N)=O)c2)C1 (single isomer, unassigned) [Compound 787] ... > 500 nM
CC(=O)Oc1ccc([C@@H]2CC[C@@H](C)CN2C(=O)C(=O)Nc2cncc(C(N)=O)c2)cc1 (single isomer, unassigned) [Compound 599] ... > 500 nM

Query block: Give its IC50 value. Item: C[C@H]1CC[C@H](c2ccc3c(c2)CNC3=O)N(C(=O)C(=O)Nc2cncc(C(N)=O)c2)C1 (single isomer, unassigned) [Compound 741]
Result block: > 500 nM

Query block: // next record CC(=O)Nc1ccc([C@H]2CC[C@H](C)CN2C(=O)C(=O)Nc2cnc(N)c(C)c2)cn1 (single isomer, unassigned) [Compound 915]
Result block: < 50 nM

Query block: // next record Cc1cc(NC(=O)C(=O)N2C[C@@H](C)CC[C@@H]2c2ccc(S(C)(=O)=O)cc2)cnc1N (single isomer, unassigned) [Compound 976]
Result block: < 50 nM

Query block: // next record C[C@H]1C[C@H](C)[C@H](c2ccccc2)N(C(=O)C(=O)Nc2cncc(C(N)=O)c2)C1 (single isomer, unassigned) [Compound 267]
Result block: < 50 nM

Query block: // next record COc1ncc(NC(=O)C(=O)N2C[C@H](C)CC[C@H]2c2ccc3[nH]cnc3c2)cc1C(N)=O (single isomer, unassigned) [Compound 794]
Result block: < 50 nM

Query block: // next record CNC(=O)c1ccc([C@@H]2CC[C@@H](C)CN2C(=O)C(=O)Nc2cnc(OC)c(C(N)=O)c2)s1 (single isomer, unassigned) [Compound 843]
Result block: > 500 nM

Query block: // next record CNC(=O)N1CCCC([C@@H]2CC[C@@H](C)CN2C(=O)C(=O)Nc2cnc(N)c(C)c2)C1 (mixture of isomers) [Compound 814]
Result block: 50 to 500 nM

Query block: // next record Cc1ncc(NC(=O)C(=O)N2C[C@@H](C)CC[C@@H]2c2ccc3sc(C4CCN(C)CC4)nc3c2)cc1C(N)=O [Compound 1326]
Result block: < 50 nM

Query block: // next record C[C@@H]1CC[C@@H](C2CCC2)N(C(=O)C(=O)Nc2cncc(C(N)=O)c2)C1 (single isomer, unassigned) [Compound 216]
Result block: > 500 nM
